Target or system RAF1: recorded Kd listed per item.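 Note: kd values determined as follow-up on hits from a single-replicate KINOMEscan panel screen.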
Numbers only, in nM.

# COMPOUND, TARGET_UNDER_TEST, QUANTITY_UNIT, Kd
data = [
    ("Cc1ccc(NC(=O)Nc2ccc(Cl)c(C(F)(F)F)c2)cc1-c1ccc(C(=O)Nc2ccncc2)cc1 [GSK1398470]", "RAF1", "nM", 340),
]

Turning now to a further record.
Problem: Bench note: what Kd did Cc1ccc(NC(=O)Nc2ccc(Cl)cc2)cc1-c1ccc(C(=O)Nc2ccncc2)cc1 [GSK1398472] show?
Solution: 350

---

system: WNK2; conditions: concentration: 1 μM, replicates: in singlicate; n = 1
I'd appreciate it if you could supply %Inh values for the items below.
Give bare numbers, in %.

Example entries and their recorded answers appear below.
# MOLECULE, TARGET_UNDER_TEST, OBSERVATION_TYPE, READING
measured = [
    ("O=C1NC(=O)C(c2ccc(Cl)cc2)=C1Nc1cccc(Cl)c1", "WNK2", "%Inh", 27),
    ("Nc1ncnc2occ(-c3ccc4c(c3)CCN4C(=O)Cc3cc(F)ccc3F)c12", "WNK2", "%Inh", 14),
    ("CC(C)c1ccc(O)cc1Nc1ccnc2ccc(C(F)(F)F)cc12", "WNK2", "%Inh", 0),
    ("Nc1nccc(-c2c(-c3ccc(F)cc3)ncn2C2CCN(Cc3ccccc3)CC2)n1", "WNK2", "%Inh", 12),
    ("Fc1ccc(-c2nc3n(c2-c2ccncc2)CCS3)cc1", "WNK2", "%Inh", 7),
    ("CNC(=O)c1ccc(C)c(-n2c(C)cc(OCc3ccc(F)cc3F)c(Br)c2=O)c1", "WNK2", "%Inh", 0),
    ("Fc1ccc(-c2nn3cccc(F)c3c2-c2ccncc2)cc1", "WNK2", "%Inh", 20),
    ("Cn1cncc1C(=O)NC1CCN(c2ccnc(Nc3ccc(F)cc3)n2)C1 (stereo not drawn)", "WNK2", "%Inh", 0),
]

Give %Inh for each listed item.
1. Cc1c(Cn2c(C)c(C)n3c(=O)cc(N4CCOCC4)nc23)cccc1C(F)(F)F
2. Cc1ccc(-c2nc(Nc3ccncc3)c3ccccc3n2)s1
3. Cc1c(Cn2c3ccccc3n3c(=O)cc(N4CCOCC4)nc23)cccc1C(F)(F)F
4. FC(F)(F)c1ccccc1-c1cc(-c2c[nH]nc2-c2ccccn2)ccn1
5. NS(=O)(=O)c1cccc(N/C=C2\C(=O)Nc3ccc(S(=O)(=O)Cc4c(Cl)cccc4Cl)cc32)c1
6. Cc1ccccc1-c1cc(-c2c[nH]nc2-c2ccccn2)ccn1
7. Cc1ccc(NC(=O)Nc2ccccc2F)cc1-c1ccc(C(=O)Nc2ccncc2)cc1

Solution:
0
3
23
0
8
14
0

Give %Inh for each listed item.
1. O=C(Nc1n[nH]c2nc(-c3cccs3)c(Br)cc12)C1CC1
2. CC[C@@H]1CO[C@H](C(=O)Nc2ccccc2)CN1c1cc(-c2ccc3c(N)n[nH]c3c2)nc(NC)n1
3. Cl.Cl.Cl.N#Cc1ccc(CCNc2nccc(-c3cccc(CN4CCNCC4)c3)n2)cc1

Solution:
[0, 10, 0]

Give %Inh for each listed item.
1. O=C(Nc1n[nH]c2nc(-c3cccs3)c(Br)cc12)C1CCCC1
2. COc1ccc(Nc2nccc(N3CCC(NC(=O)c4cc5ccccc5s4)C3)n2)cc1 (stereo not drawn)
3. CCn1c(-c2c(N)noc2C)nc2cnccc21
4. O=C(Nc1n[nH]c2cc(-c3ccsc3)ccc12)C1CC1
5. COC(=O)c1cccc(NC(=O)NC2CCN(c3ccnc(Nc4ccc(OC)cc4)n3)C2)c1 (stereo not drawn)
6. Nc1cccc(-c2ccc3c(N)n[nH]c3c2)n1
7. Cc1ccc(NC(=O)c2ccc(Cl)cc2)cc1-c1ccc(C(=O)Nc2ccncc2)cc1

Solution:
1: 5; 2: 11; 3: 0; 4: 34; 5: 4; 6: 0; 7: 0

Give %Inh for each listed item.
1. CCc1ccc(-c2ccc3c(c2)-c2n[nH]cc2S(=O)(=O)N3C)cc1
2. COc1ccc(CSc2nnc(-c3ccc4c(c3)CCO4)o2)cc1

Solution:
[2, 0]

---

tested on: ERK4; construct: gene MAPK4; details: concentration: 1 μM, replicates: in singlicate; n = 1
I'd appreciate it if you could supply %Inh values for the items below.
Numbers only, in %.

Example entries and their recorded answers appear below.
# COMPOUND, %Inh / %
records = [
    ("CSc1ccc(-c2nc3n(c2-c2ccncc2)CCC3)cc1", 0),
    ("NS(=O)(=O)c1cccc(N/C=C2\\C(=O)Nc3ccc(S(=O)(=O)Cc4c(Cl)cccc4Cl)cc32)c1", 48),
    ("Cc1ccc(-c2nc(Nc3ccncc3)c3ccccc3n2)s1", 0),
]

Give %Inh for each listed item.
1. COC(=O)c1cccc(NC(=O)NC2CCN(c3ccnc(Nc4ccc(OC)cc4)n3)C2)c1 (centres unmarked)
2. O=C(Nc1n[nH]c2nc(-c3ccco3)c(Br)cc12)C1CCN(Cc2ccccc2)C1.O=C(O)[C@H](O)[C@@H](O)C(=O)O (centres unmarked)
3. COc1ccc(Nc2nccc(N3CCC(NC(=O)c4cc5ccccc5s4)C3)n2)cc1 (centres unmarked)
4. O=C1NC(=O)C(c2ccc(Cl)cc2)=C1Nc1cccc(Cl)c1
5. Cc1ccc(NC(=O)Nc2ccccc2F)cc1-c1ccc(C(=O)Nc2ccncc2)cc1

Solution:
[2, 0, 15, 0, 20]

---

tested on: TGFBR2; settings: concentration: 1 μM, replicates: in singlicate; n = 1
Please use t for %Inh under 7% and f for everything else, ties included.

Examples with answers:
# COMPOUND, TARGET_UNDER_TEST, CLASS
measured = [
    ("Cc1ccc(NC(=O)Nc2ccccc2F)cc1-c1ccc(C(=O)Nc2ccncc2)cc1", "TGFBR2", "f"),
    ("Cc1ccc(NC(=O)Nc2ccc(Cl)cc2)cc1-c1ccc(C(=O)Nc2ccncc2)cc1", "TGFBR2", "t"),
    ("Fc1ccc(-c2nc[nH]c2-c2ccncc2)cc1", "TGFBR2", "f"),
    ("O=C(Nc1n[nH]c2nc(-c3cccs3)c(Br)cc12)C1CC1", "TGFBR2", "t"),
    ("Nc1ncnc2occ(-c3ccc4c(c3)CCN4C(=O)Cc3cc(F)ccc3F)c12", "TGFBR2", "t"),
    ("CNc1nc(-c2ccc3c(N)n[nH]c3c2)cc(N2C[C@@H](C(=O)NC3CCCCC3)OC[C@H]2C)n1", "TGFBR2", "t"),
    ("CC(=O)c1c(C)c2cnc(Nc3ccc(N4CCNCC4)cn3)nc2n(C2CCCC2)c1=O", "TGFBR2", "t"),
    ("O=C(Nc1n[nH]c2nc(-c3ccco3)c(Br)cc12)C1CCN(Cc2ccccc2)C1.O=C(O)[C@H](O)[C@@H](O)C(=O)O (stereo not drawn)", "TGFBR2", "f"),
]

Problem: State whether 7% exceeds %Inh recorded for COc1ccc(CSc2nnc(-c3ccc4ncsc4c3)o2)cc1C(F)(F)F .
Solution: f

Problem: State whether 7% exceeds %Inh recorded for CC(=O)c1cccc(NC(=O)NC2CCN(c3ccnc(Nc4ccc(F)cc4)n3)C2)c1 (stereo not drawn) .
Solution: t

Problem: State whether 7% exceeds %Inh recorded for CCn1c(-c2ccccc2)nc2cnccc21 .
Solution: f

Problem: State whether 7% exceeds %Inh recorded for COc1ccc(Nc2nccc(NCCNC(=O)Nc3cc(C)ccc3C)n2)cc1 .
Solution: t

Problem: State whether 7% exceeds %Inh recorded for CCc1ccc(-c2ccc3c(c2)-c2n[nH]cc2S(=O)(=O)N3C)cc1 .
Solution: t

Problem: State whether 7% exceeds %Inh recorded for COc1ccc(CSc2nnc(-c3ccc4c(c3)CCO4)o2)cc1 .
Solution: t

Problem: State whether 7% exceeds %Inh recorded for COc1ccc2cc(-c3nc(-c4ccccc4C(C)C)[nH]c3-c3ccncc3)ccc2c1 .
Solution: f

Problem: State whether 7% exceeds %Inh recorded for Cc1nccc(-c2c(-c3ccc(F)cc3)ncn2CCCN2CCOCC2)n1.Cl .
Solution: t

Problem: State whether 7% exceeds %Inh recorded for NS(=O)(=O)c1cccc(N/C=C2\C(=O)Nc3ccc(S(=O)(=O)Cc4c(Cl)cccc4Cl)cc32)c1 .
Solution: t

---

I'd appreciate it if you could supply %Inh values for the items below.
system: MST4; settings: concentration: 1 μM, replicates: in singlicate; n = 1

Example entries and their recorded answers appear below.
# COMPOUND, OBSERVATION_TYPE, READING
rows = [
    ("Cc1cnc(N)c(/C=C/c2cncc(C(=O)NCCc3ccc(Cl)cc3Cl)c2)c1.Cl", "%Inh", "0%"),
    ("NS(=O)(=O)c1cccc(N/C=C2\\C(=O)Nc3ccc(S(=O)(=O)Cc4c(Cl)cccc4Cl)cc32)c1", "%Inh", "0%"),
    ("COc1ccc2cc(-c3nc(-c4ccccc4C(C)C)[nH]c3-c3ccncc3)ccc2c1", "%Inh", "0%"),
]

Turning now to a further record.
Problem: Bench note: what %Inh did COC(=O)C(Cc1ccccc1)NC(=O)NC1CCN(c2ccnc(Nc3ccc(F)cc3)n2)C1 (stereo not shown) show?
Solution: 0%
